- TESTED SYSTEM: T1, biotinylated CD3 epsilon:delta heterodimer protein (Amsbio AMS.CDD-H52WO) (Homo sapiens (Human), UniProt P07766 23-126; P04234 22-105)
- T1 construct: also called CD3 heterodimer
- MEASUREMENT DESCRIPTION: BLI (Octet), CD3 on SA sensor, Fab analyte;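 further: biolayer interferometry with biotinylated CD3 epsilon:delta captured on streptavidin sensors, Fab analyte at several concentrations up to 300 nM, 100 s association then 300 s dissociation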
READOUT KIND: kon (M⁻¹ s⁻¹)
Your answer is read as M⁻¹ s⁻¹, so omit the unit and give the number.

For huSP34.3.1 Fab-HF (Fab, V domains shown, also called HC3+LC1) VH: EVQLVESGGGLVQPGGSLRLSCAASGFTFNTYAMNWVRQAPGKGLEWVGRIRSKYNNYATYYADSVKGRFTISRDDSKNSLYLQMNSLRTEDTAVYYCVRHGNFGHSYVSWFAYWGQGTLVTVSS VL: QAVVTQEPSLTVSPGGTVTLTCRSSTGAVTTSNYANWVQQKPGQAPRGLIGGTNKRAPWTPARFSGSLIGDKAALTLSGAQPEDEAEYYCALWYSNLWVFGGGTKLTVL the binder record lists kon as 252000

Alright, here's another binder for you.
Reported kon of huSP34.5.5 Fab-HF (Fab, V domains shown, also called HC5+LC5) VH: EVQLVESGGGLVQPGGSLRLSCAASGFTFSTYAMNWVRQAPGKGLEWVGRIRSKYNNYATYYADSVKGRFTISRDNSKNTLYLQMNSLRAEDTAVYYCVRHGNFGHSYVSWFAVWGQGTLVTVSS VL: QAVVTQEPSLTVSPGGTVTLTCGSSTGAVTTGHYANWVQQKPGQAPRGLIGGTSNRAPWTPARFSGSLLGGKAALTLSGAQPEDEAEYYCALWYSARWVFGGGTKLTVL : 277000

Ref: patent US20230056252A1
